DC50 reference
Molecular target: IRAK4 (Homo sapiens)
Construct: endogenous in cells; host or cells: Karpas299
Test: IRAK4 Degradation Assay (Karpas299, HTRF/TR-FRET)
Assay type: cell-based
Settings: Karpas-299 cells, 5 h treatment; read-out: IRAK4 in Karpas-299 (5 h) DC50
Method: IRAK4 degradation was measured using a TR-FRET-based method (Degorce, François, et al. Current chemical genomics. 2009, 3: 22). […] IRAK4 level was quantitated using the HTRF kit as described by the manufacturer manual (Cisbio). FRET signals were measured using a PHERAstar FSX reader (BMG Labtech). […] The inhibition (degradation) percentage of the compound was calculated by the following equation: […]
OBSERVABLE: DC50 (nM)

| COMPOUND | EXPERIMENTAL_SYSTEM | OBSERVABLE | U | EXPERIMENTAL_RESULT |
| --- | --- | --- | --- | --- |
| CC(C)(O)c1cc2nn([C@H]3CC[C@H](N4CCN(C(=O)C5CN(c6cc(F)c([C@H]7CCC(=O)NC7=O)c(F)c6)C5)CC4)CC3)cc2cc1NC(=O)c1cccc(C(F)(F)F)n1 [Example 38] | IRAK4 (Homo sapiens) | DC50 | nM | 2.3 |
| CC(C)(O)c1cc2nn(C34CC(N5CCN(C(=O)[C@@H]6CCN(c7cc(F)c([C@H]8CCC(=O)NC8=O)c(F)c7)C6)CC5)(C3)C4)cc2cc1NC(=O)c1cccc(C(F)(F)F)n1 [Example 152] | IRAK4 (Homo sapiens) | DC50 | nM | 3.8 |
| COC[C@H]1CN([C@H]2CC[C@H](n3cc4cc(NC(=O)c5ccc6cc(C#N)cnn56)c(C(C)(C)O)cc4n3)CC2)CCN1C1CCN(c2cc(F)c([C@H]3CCC(=O)NC3=O)c(F)c2)CC1 [Example 317] | IRAK4 (Homo sapiens) | DC50 | nM | 1.9 |

---

Target: IRAK4 (Homo sapiens, UniProt Q9NWZ3)
Construct: endogenous in cells; host or cells: Karpas299
Sequence (Q9NWZ3 whole entry): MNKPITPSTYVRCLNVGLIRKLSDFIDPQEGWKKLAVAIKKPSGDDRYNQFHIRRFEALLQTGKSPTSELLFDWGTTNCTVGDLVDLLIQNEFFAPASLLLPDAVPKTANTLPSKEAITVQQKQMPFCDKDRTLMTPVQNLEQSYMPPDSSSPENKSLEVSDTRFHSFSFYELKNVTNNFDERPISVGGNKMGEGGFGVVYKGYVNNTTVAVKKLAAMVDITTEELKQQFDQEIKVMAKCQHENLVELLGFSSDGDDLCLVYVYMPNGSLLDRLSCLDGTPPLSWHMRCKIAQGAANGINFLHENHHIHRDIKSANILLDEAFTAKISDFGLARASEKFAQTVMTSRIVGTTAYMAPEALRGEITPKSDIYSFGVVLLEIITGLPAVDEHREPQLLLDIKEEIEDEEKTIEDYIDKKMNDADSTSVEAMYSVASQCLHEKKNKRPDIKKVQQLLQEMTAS
Assay: IRAK4 Degradation Assay (Karpas299, HTRF/TR-FRET)
Format: cell-based
Conditions: Karpas-299 cells, 24 h treatment; maximum percentage of degradation; read-out: IRAK4 in Karpas-299 (24 h) Dmax (%)

| MOLECULE | Dmax [%] |
| --- | --- |
| O=C1CCN(c2ccc(N3CCC(N4CCN([C@H]5CC[C@H](n6cc(NC(=O)c7coc(-c8ccnc(NCC(F)(F)F)c8)n7)c(C(F)F)n6)CC5)CC4)C3)cc2)C(=O)N1 (some centres unmarked) | 98 |
| CC(C)(O)c1cc2nc(C3CCN(C4CCN(C(=O)[C@H]5CCN(c6ccc(N7CCC(=O)NC7=O)cc6)C5)CC4)CC3)cn2cc1NC(=O)c1cccc(C(F)(F)F)n1 | 100 |
| CC(C)(O)c1cc2nn([C@H]3CC[C@H](N4CCN([C@@H]5CCN(c6cc(F)c(C7CCC(=O)NC7=O)c(F)c6)C5)CC4)CC3)cc2cc1NC(=O)c1ccc2cc(C#N)cnn12 (some centres unmarked) | 98 |
| CC(C)(O)c1cc2nn([C@H]3CC[C@H](N4CCN(C5CN(c6cc(F)c([C@H]7CCC(=O)NC7=O)c(F)c6)C5)CC4)CC3)cc2cc1NC(=O)c1ccc2cc(C#N)cnn12 | 98 |
| CC(=O)c1cc2nn([C@H]3CC[C@H](N4CCN(C5CN(c6cc(F)c([C@H]7CCC(=O)NC7=O)c(F)c6)C5)CC4)CC3)cc2cc1NC(=O)c1ccc2cc(C#N)cnn12 | 98 |

---

DC50 reference
Molecular target: IRAK4 (Homo sapiens, UniProt Q9NWZ3)
Construct: endogenous in cells; host or cells: Karpas299
Assay: IRAK4 Degradation Assay (Karpas299, HTRF/TR-FRET)
Assay type: cell-based
Details: Karpas-299 cells, 24 h treatment; read-out: IRAK4 in Karpas-299 (24 h) DC50

| MOLECULE | EXPERIMENTAL_SYSTEM | DC50 |
| --- | --- | --- |
| O=C1CC[C@H](c2c(F)cc(N3CC(C(=O)N4CCN([C@H]5CC[C@H](n6cc(NC(=O)c7cnn(-c8ccnc(NCC(F)(F)F)c8)n7)c(C(F)F)n6)CC5)CC4)C3)cc2F)C(=O)N1 | IRAK4 (Homo sapiens, UniProt Q9NWZ3) | 1.2 nM |
| Cc1nc(C2CCC(=O)NC2=O)ccc1N1CCC(N2CCN(C34CCC(n5cc6cc(NC(=O)c7ccc8cc(C#N)cnn78)c(C(C)(C)O)cc6n5)(CC3)CC4)CC2)CC1 (centres unmarked) | IRAK4 (Homo sapiens, UniProt Q9NWZ3) | 1.9 nM |
| CC(C)(O)c1cc2nn(C3CCN([C@@H]4CCN(CCc5cc(F)c([C@H]6CCC(=O)NC6=O)c(F)c5)CC4(F)F)CC3)cc2cc1NC(=O)c1ccc2cc(C#N)cnn12 | IRAK4 (Homo sapiens, UniProt Q9NWZ3) | 3.4 nM |
| CC(C)(O)c1cc2nn([C@H]3CC[C@H](N4CCN(CCc5cc(F)c([C@H]6CCC(=O)NC6=O)c(F)c5)CC4)CC3)cc2cc1NC(=O)c1ccn2cc(C#N)cnc12 | IRAK4 (Homo sapiens, UniProt Q9NWZ3) | > 1000 nM |
| N#Cc1cnc2c(C(=O)Nc3ccc4nn([C@H]5CC[C@H](N6CCN(C7CN(c8cc(F)c([C@H]9CCC(=O)NC9=O)c(F)c8)C7)CC6)CC5)cc4c3)cnn2c1 | IRAK4 (Homo sapiens, UniProt Q9NWZ3) | > 1000 nM |
| CC(C)(O)c1cc2nn([C@H]3CC[C@H](N4CCN([C@H]5C[C@@H](c6ccc(N[C@@H]7CCC(=O)NC7=O)cc6)C5)CC4)CC3)cc2cc1NC(=O)c1ccc2cc(C#N)cnn12 | IRAK4 (Homo sapiens, UniProt Q9NWZ3) | 4 nM |
| COc1cc2nn([C@H]3CC[C@H](N4CCN(C(=O)C5CN(c6ccc(N7CCC(=O)NC7=O)cc6)C5)CC4)CC3)cc2cc1NC(=O)c1cccc(C(F)(F)F)n1 | IRAK4 (Homo sapiens, UniProt Q9NWZ3) | 0.7 nM |
| O=C1CC[C@H](c2c(F)cc(N3CC(C(=O)N4CCN(C[C@H]5CC[C@H](n6cc(NC(=O)c7coc(-c8ccnc(NCC(F)(F)F)c8)n7)c(C(F)F)n6)CC5)CC4)C3)cc2F)C(=O)N1 | IRAK4 (Homo sapiens, UniProt Q9NWZ3) | 6.2 nM |
| COC[C@@H]1CN([C@H]2CC[C@H](n3cc4cc(NC(=O)c5ccc6cc(C#N)cnn56)c(C(C)(C)O)cc4n3)CC2)CCN1C1CN(c2cc(F)c([C@H]3CCC(=O)NC3=O)c(F)c2)C1 | IRAK4 (Homo sapiens, UniProt Q9NWZ3) | 0.8 nM |
| CC(C)(O)c1cc2nn([C@H]3CC[C@H](N4CCN(C(=O)[C@@H]5CCN(c6ccc(N7CCC(=O)NC7=O)cc6)C5)CC4)CC3)cc2cc1NC(=O)c1ccc2cc(C#N)cnn12 | IRAK4 (Homo sapiens, UniProt Q9NWZ3) | 2.6 nM |
| CCC(C)c1cc(-c2nc(C(=O)Nc3cn([C@H]4CC[C@H](N5CCN(C(=O)[C@@H]6CCN(c7cc(F)c([C@H]8CCC(=O)NC8=O)c(F)c7)C6)CC5)CC4)nc3C(F)F)co2)ccn1 (some centres unmarked) | IRAK4 (Homo sapiens, UniProt Q9NWZ3) | 6.8 nM |
| CC(C)(O)c1cc2nn(C3CCN(C4CCN(C(=O)C5CN(c6cc(F)c([C@H]7CCC(=O)NC7=O)c(F)c6)C5)CC4)CC3)cc2cc1NC(=O)c1ccc2cc(C#N)cnn12 | IRAK4 (Homo sapiens, UniProt Q9NWZ3) | 1.4 nM |
| O=C1CCN(c2ccc(N3CC(C(=O)N4CCN([C@H]5CC[C@H](n6cc(NC(=O)c7coc(-c8ccnc(NCC(F)(F)F)c8)n7)c(C(F)F)n6)CC5)CC4)C3)cc2)C(=O)N1 | IRAK4 (Homo sapiens, UniProt Q9NWZ3) | 2.7 nM |
| CC(C)(O)c1cc2nn(C34CC(N5CCN(CCC6CCN(c7cc(F)c([C@H]8CCC(=O)NC8=O)c(F)c7)CC6)CC5)(C3)C4)cc2cc1NC(=O)c1ccc2cc(C#N)cnn12 | IRAK4 (Homo sapiens, UniProt Q9NWZ3) | 2.4 nM |
| Cc1cc(-c2nc(C(=O)Nc3cn(-c4ccc(N5CCN(C(=O)[C@@H]6CCN(c7cc(F)c([C@H]8CCC(=O)NC8=O)c(F)c7)C6)CC5)nc4)nc3C(N)=O)co2)ccn1 | IRAK4 (Homo sapiens, UniProt Q9NWZ3) | 3.2 nM |
| CC(C)(O)c1cc2nn([C@H]3CC[C@H](N4CCN(C[C@H]5C[C@@H](c6cc(F)c([C@H]7CCC(=O)NC7=O)c(F)c6)C5)CC4)CC3)cc2cc1NC(=O)c1ccc2cc(C#N)cnn12 | IRAK4 (Homo sapiens, UniProt Q9NWZ3) | 1.6 nM |
| CC(C)(O)c1cc2nn([C@H]3CC[C@H](C4CCN(C5CCN(c6cc(F)c([C@H]7CCC(=O)NC7=O)c(F)c6)CC5)CC4)CC3)cc2cc1NC(=O)c1ccc2cc(C#N)cnn12 | IRAK4 (Homo sapiens, UniProt Q9NWZ3) | 3.5 nM |
| CC(C)(O)c1cc2nn([C@H]3CC[C@H](N4CCN(C(=O)C5CN(c6ccc(N7CCC(=O)NC7=O)cc6)C5)CC4)CC3)cc2cc1NC(=O)c1cccc(C(F)(F)F)n1 | IRAK4 (Homo sapiens, UniProt Q9NWZ3) | 0.9 nM |
| CC(C)(O)c1cc2nn([C@H]3CC[C@H](N4CCN(C(=O)C5CN(c6cnc(C7CCC(=O)NC7=O)c(F)c6)C5)CC4)CC3)cc2cc1NC(=O)c1ccc2cc(C#N)cnn12 (some centres unmarked) | IRAK4 (Homo sapiens, UniProt Q9NWZ3) | 0.6 nM |
| COC[C@H]1CN(C2CCN(c3cc(F)c([C@H]4CCC(=O)NC4=O)c(F)c3)CC2)CCN1[C@H]1CC[C@H](n2cc3cc(NC(=O)c4ccc5cc(C#N)cnn45)c(C(C)(C)O)cc3n2)CC1 | IRAK4 (Homo sapiens, UniProt Q9NWZ3) | 1 nM |
